# Lookup of reported Ki keyed by entry
- system.tested: h5HT2A (Homo sapiens (Human))
- Sequence (P28223 whole entry): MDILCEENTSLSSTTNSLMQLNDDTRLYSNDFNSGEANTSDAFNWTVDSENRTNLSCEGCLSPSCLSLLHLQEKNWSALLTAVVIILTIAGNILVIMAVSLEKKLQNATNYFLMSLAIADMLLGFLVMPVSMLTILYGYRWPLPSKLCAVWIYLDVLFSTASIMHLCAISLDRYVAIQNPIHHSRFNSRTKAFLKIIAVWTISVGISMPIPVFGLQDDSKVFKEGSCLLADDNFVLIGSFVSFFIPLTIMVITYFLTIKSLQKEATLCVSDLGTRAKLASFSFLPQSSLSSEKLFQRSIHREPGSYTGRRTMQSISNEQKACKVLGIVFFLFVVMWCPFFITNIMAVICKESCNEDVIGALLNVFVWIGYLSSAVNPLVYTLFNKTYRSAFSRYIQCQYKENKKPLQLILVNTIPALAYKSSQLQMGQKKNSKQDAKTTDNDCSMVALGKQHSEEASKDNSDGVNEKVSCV
- protocol.description: h5HT2A binding
Answer in nM, number only, no unit symbol.

Example entries and their recorded answers appear below.
substance.smiles: Cc1ccc(Oc2cc(Cl)ccc2O[C@@H]2CCN(C)C2)cc1
Ki, nM: 150
//
substance.smiles: CN1CC[C@@H](Oc2ccc(Cl)cc2Oc2ccc(F)cc2)C1
Ki, nM: 78
//
substance.smiles: Clc1cccc(Oc2cc(Cl)ccc2O[C@H]2CCNC2)c1
Ki, nM: 84

So, Fc1ccc(Oc2cc(Cl)ccc2O[C@H]2CCNC2)cc1 ? Its Ki was 190

So, Clc1ccc(O[C@H]2CCNC2)c(Oc2ccc(Br)cc2)c1 ? Its Ki was 410

So, Cc1ccc(Oc2cc(Cl)ccc2O[C@@H]2CCNC2)cc1 ? Its Ki was 120

So, Clc1ccc(Oc2cc(Cl)ccc2O[C@H]2CCNC2)cc1 ? Its Ki was 530

So, CC(C)c1ccc(Oc2cc(Cl)ccc2O[C@H]2CCNC2)cc1 ? Its Ki was 1400

So, Fc1ccc(Oc2cc(Cl)ccc2O[C@@H]2CCNC2)cc1 ? Its Ki was 120

###

- system.tested: human SERT (Homo sapiens (Human), UniProt P31645)
- Sequence (P31645 whole entry): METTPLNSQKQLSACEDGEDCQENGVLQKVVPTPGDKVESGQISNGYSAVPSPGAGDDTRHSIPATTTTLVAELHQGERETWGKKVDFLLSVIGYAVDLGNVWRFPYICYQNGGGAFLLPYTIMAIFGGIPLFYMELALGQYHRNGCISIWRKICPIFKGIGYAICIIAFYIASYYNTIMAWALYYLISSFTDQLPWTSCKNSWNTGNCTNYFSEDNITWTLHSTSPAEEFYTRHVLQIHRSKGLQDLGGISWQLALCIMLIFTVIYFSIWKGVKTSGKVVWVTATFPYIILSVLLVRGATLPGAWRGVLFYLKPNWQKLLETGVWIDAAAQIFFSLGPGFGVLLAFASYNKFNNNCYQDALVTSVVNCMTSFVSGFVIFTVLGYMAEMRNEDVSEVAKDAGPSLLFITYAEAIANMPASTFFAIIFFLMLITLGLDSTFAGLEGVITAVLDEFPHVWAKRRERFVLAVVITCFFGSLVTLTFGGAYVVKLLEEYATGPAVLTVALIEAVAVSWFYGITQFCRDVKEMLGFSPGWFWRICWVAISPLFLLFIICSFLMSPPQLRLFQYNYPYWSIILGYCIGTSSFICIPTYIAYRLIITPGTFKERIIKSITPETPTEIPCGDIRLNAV
Threshold 100 nM: Ki strictly smaller gives MET, otherwise NOT MET.

Worked set:
compound: Fc1ccc(OCc2ccc(C(F)(F)F)o2)c(OC2CNC2)c1 [Example 208]
class.assignment: NOT MET
--
compound: Clc1cccc(Oc2ccc(Br)cc2OC2CNC2)c1 [Example 252]
class.assignment: MET
--
compound: Fc1ccc(COc2ccc(Br)cc2OC2CNC2)cc1Cl [Example 12]
class.assignment: MET
--
compound: CC(Oc1ccc(Cl)cc1OC1CN(C(C)(C)C)C1)c1cccc(C(F)(F)F)c1 (centres unmarked) [Example 231]
class.assignment: NOT MET
--
compound: COc1ccc2c(c1)CC(Oc1ccc(Cl)cc1OC1CNC1)C2 (centres unmarked) [Example 177]
class.assignment: NOT MET

For this compound, is Ki lower than 100 nM? CC(Oc1ccc(Br)cc1OC1CNC1)c1cccc(OC(F)(F)F)c1 (racemic) [Example 110]
NOT MET

For this compound, is Ki lower than 100 nM? FC(F)(F)c1ccc(COc2ccc(Br)cc2CC2CNC2)o1 [Example 232]
MET

For this compound, is Ki lower than 100 nM? CC(Oc1ccc(Cl)cc1OC1CNC1)c1cccc(Cl)c1 (racemic) [Example 114]
MET

For this compound, is Ki lower than 100 nM? FC(F)(F)c1cc(COc2ccc(Cl)cc2OC2CNC2)ccc1Cl [Example 49]
MET

###

- system.tested: rat 5-HT7 receptor (Rattus norvegicus (Rat), UniProt P32305)
- Sequence (P32305 1-435): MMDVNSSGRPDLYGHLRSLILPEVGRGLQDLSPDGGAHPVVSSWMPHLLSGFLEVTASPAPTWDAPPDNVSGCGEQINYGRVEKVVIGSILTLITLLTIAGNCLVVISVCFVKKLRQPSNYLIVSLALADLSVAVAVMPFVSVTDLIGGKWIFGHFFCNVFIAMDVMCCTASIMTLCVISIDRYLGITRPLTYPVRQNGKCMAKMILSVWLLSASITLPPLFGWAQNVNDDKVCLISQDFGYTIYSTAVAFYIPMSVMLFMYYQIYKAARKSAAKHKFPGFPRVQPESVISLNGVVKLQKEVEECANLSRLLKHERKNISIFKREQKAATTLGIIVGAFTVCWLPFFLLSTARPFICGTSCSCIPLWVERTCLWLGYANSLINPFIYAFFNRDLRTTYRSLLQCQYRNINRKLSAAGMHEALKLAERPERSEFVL
- protocol.description: r5-HT7 binding assay, competitive radioligand binding with [3H]5-CT
- study.conditions: rat 5-HT7 receptor, HEK-293 membranes
Structures can show the parent of a compound that is named as a salt.
# Ki binned as range 1: < 20 nM; range 2: ≥ 20 nM and < 80 nM; range 3: ≥ 80 nM

molecule: FC1(F)Oc2ccc(COc3ccc(Cl)cc3OC3CNC3)cc2O1 [Example 86]
class.assignment: range 2

molecule: COc1ccc(COc2ccc(Br)cc2OC2CNC2)cc1Cl [Example 13]
class.assignment: range 1

molecule: Fc1ccc(COc2ccc(Cl)cc2OC2CNC2)cc1 [Example 25, hydrochloride]
class.assignment: range 1

Class label required: CC(Oc1ccc(Cl)cc1OC1CN(C(C)C)C1)c1cccc(C(F)(F)F)c1 (racemic) [Example 106]
range 2

Class label required: CC(Oc1ccc(Cl)cc1OC1CNC1)c1cc(Cl)ccc1Cl (racemic) [Example 129, trifluoroacetate]
range 3

Class label required: O=C(O)c1cc(COc2ccc(Cl)cc2OC2CNC2)oc1C(F)(F)F [Example 75, trifluoroacetate]
range 3

FYI, the data here is from patent US9981909B2.
